# System: Coxsackievirus B5
# method notes: Antiviral activity against Coxsackie virus type B5 Ohio-1 ATCC VR-29 infected in african green monkey Vero-76 cells assessed as reduction in viral plaque after 3 days by crystal violet staining
# Type: functional, organism-based
# condition label: Enterovirus B, Ohio-1 ATCC VR-29, Vero 76, 72 h
Attribute: EC50

Please review the following examples before continuing.
| compound | endpoint name | result |
| --- | --- | --- |
| COc1ccc(-c2nc3cc(/C(C)=N/NC(N)=S)ccc3n2C2CCCCC2)cc1 | EC50 | > 40 µM |
| CC(=O)c1ccc2[nH]c(-c3ccc(C(F)(F)F)cc3)nc2c1 | EC50 | > 100 µM |
| CC(=O)c1ccc2c(c1)nc(-c1ccc(Cl)cc1)n2C1CCCCC1 | EC50 | > 100 µM |
| COc1ccc(-c2nc3cc(C(C)=O)ccc3[nH]2)c(OC)c1OC | EC50 | > 100 µM |
| C/C(=N\O)c1ccc2[nH]c(-c3ccccc3)nc2c1 | EC50 | > 100 µM |

Under Coxsackievirus B5, report EC50 for COc1ccc(-c2nc3cc(/C(C)=N/NC(N)=S)ccc3[nH]2)cc1
> 100 µM

----------
# method notes: Cytotoxicity against african green monkey Vero 76 cells after 48 to 96 hrs by MTT assay
# Assay type: cell-based
# condition label: chlorocebus sabaeus
Let's look at some molecules and their measured CC50.

Answered cases to consult:
| molecule | CC50 |
| --- | --- |
| COc1ccc(-c2nc3cc(/C(C)=N/NC(N)=S)ccc3[nH]2)cc1 | > 100 µM |
| CC(=O)c1ccc2c(c1)nc(-c1ccoc1)n2C1CCCCC1 | 80 µM |
| COc1ccc(-c2nc3cc(/C(C)=N/NC(N)=S)ccc3[nH]2)c(OC)c1 | > 100 µM |
| C/C(=N\NC(N)=O)c1ccc2c(c1)nc(-c1ccccn1)n2C1CCCCC1 | > 100 µM |
| COc1ccc(-c2nc3cc(C(C)=O)ccc3n2C2CCCCC2)c(OC)c1 | 70 µM |
| COc1ccc(-c2nc3cc(/C(C)=N/NC(N)=S)ccc3n2C2CCCCC2)c(OC)c1 | 20 µM |
| C/C(=N\NC(N)=O)c1ccc2[nH]c(-c3ccccc3)nc2c1 | > 100 µM |
| COc1ccc(-c2nc3cc(C(C)O)ccc3[nH]2)c(OC)c1OC (stereo unspecified) | ≥ 100 µM |
| CC(=O)c1ccc2[nH]c(-c3ccoc3)nc2c1 | > 100 µM |
| CC(=O)c1ccc2[nH]c(-c3ccccc3)nc2c1 | > 100 µM |

Continue with the next molecule.
Answer with reported CC50 of COc1ccc(-c2nc3cc(/C(C)=N/NC(N)=S)ccc3n2C2CCCCC2)cc1
40 µM

----------
# method notes: Cytotoxicity against MDBK cells after 48 to 96 hrs by MTT assay
# Format: cell-based, Bos taurus
# condition label: cattle
Known CC50 of a selection of compounds
Field: numeric (µM). Do not append units.

Kindly indicate its recorded CC50. Item: COc1ccc(-c2nc3cc(C(C)=O)ccc3n2C2CCCCC2)c(OC)c1
21

State, in one line, measured CC50 of COc1ccc(-c2nc3cc(C(C)=O)ccc3[nH]2)c(OC)c1
73

State its CC50: CC(=O)c1ccc2c(c1)nc(-c1ccc(C(F)(F)F)cc1)n2C1CCCCC1
52
